Test: Pharmacokinetic study in mice
Format: in vivo
Conditions: mouse, plasma, ip; 25 mg/kg i.p., male C57Bl6 mice
Endpoint: Cmax (ng/mL)
Form entry: value (ng/mL) — number only.

Inquiry: So what's the measured Cmax for this one? COc1ccc(CNc2c3c(nc4ccc(C#N)cc24)CCN(C(C)=O)C3)cc1Cl
Reply text: 1570

----------
Assay: Pharmacokinetic study in mice
Type: in vivo
Settings: mouse, plasma, ip; 25 mg/kg i.p., male C57Bl6 mice; read-out: MRT Mean Residence Time, plasma
Endpoint: MRT (h)
Form entry: value (h) — number only.

Inquiry: So what's the measured MRT for this one? COc1ccc(CNc2c3c(nc4ccc(C#N)cc24)CCN(C(C)=O)C3)cc1Cl
Reply text: 1.56
